target: T1, cell surface human mesothelin (MSLN) (human, UniProt Q13421 296-598); assay: flow cytometry, NCI-H226 cells + 20 nM soluble MSLN
T1 construct: whole, on cells; also called cell surface MSLN
T1 sequence (Q13421 other isoform, or with tags, fused parts or gaps limits assumed): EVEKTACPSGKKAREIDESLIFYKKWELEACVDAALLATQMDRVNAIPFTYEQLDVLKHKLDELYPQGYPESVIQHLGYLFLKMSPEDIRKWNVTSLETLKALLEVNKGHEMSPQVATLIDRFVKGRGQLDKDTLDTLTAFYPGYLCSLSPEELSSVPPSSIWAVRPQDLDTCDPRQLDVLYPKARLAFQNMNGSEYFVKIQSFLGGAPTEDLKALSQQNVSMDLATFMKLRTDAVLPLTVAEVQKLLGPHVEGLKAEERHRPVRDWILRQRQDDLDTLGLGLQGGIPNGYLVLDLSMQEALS
parameter_measured: Emax (MFI)

{"binder": "FS22-053-008-AA/FS28-256-018 mAb^2 (bispecific antibody, human IgG1, kappa, L234A L235A, V domains shown) VH: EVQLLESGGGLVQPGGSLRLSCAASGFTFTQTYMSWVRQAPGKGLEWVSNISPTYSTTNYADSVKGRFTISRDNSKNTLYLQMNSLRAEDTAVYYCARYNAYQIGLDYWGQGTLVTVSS VL: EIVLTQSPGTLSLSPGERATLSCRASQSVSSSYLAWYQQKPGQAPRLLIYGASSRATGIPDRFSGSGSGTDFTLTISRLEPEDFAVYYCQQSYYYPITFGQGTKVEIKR", "numeric_value": 494000}
{"binder": "FS22-053-008-AA/FS28-024-051 mAb^2 (bispecific antibody, human IgG1, kappa, L234A L235A, V domains shown, also called FS28-024-51) VH: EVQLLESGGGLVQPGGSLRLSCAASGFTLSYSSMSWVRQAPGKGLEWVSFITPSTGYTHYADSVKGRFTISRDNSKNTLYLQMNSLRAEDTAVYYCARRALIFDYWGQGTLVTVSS VL: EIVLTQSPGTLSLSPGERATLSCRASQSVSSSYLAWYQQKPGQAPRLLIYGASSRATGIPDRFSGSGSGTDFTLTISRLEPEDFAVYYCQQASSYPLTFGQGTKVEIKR", "numeric_value": "1.1e+06"}
{"binder": "FS22-053-008-AA/FS28-256-021 mAb^2 (bispecific antibody, human IgG1, kappa, L234A L235A, V domains shown) VH: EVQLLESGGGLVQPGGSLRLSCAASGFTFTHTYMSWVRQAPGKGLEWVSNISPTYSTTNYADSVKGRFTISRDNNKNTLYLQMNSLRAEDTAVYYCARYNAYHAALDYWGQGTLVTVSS VL: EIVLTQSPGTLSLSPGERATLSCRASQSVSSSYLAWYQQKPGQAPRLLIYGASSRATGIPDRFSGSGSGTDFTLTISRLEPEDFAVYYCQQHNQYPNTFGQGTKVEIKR", "numeric_value": 839000}
{"binder": "FS22-053-008-AA/FS28-024-060 mAb^2 (bispecific antibody, human IgG1, kappa, L234A L235A, V domains shown) VH: EVQLLESGGGLVQPGGSLRLSCAASGFTLSYSSMSWVRQAPGKGLEWVSFITPSTGYTHYADSVKGRFTISRDNSKNTLYLQMNSLRAEDTAVYYCARRALWFDYWGQGTLVTVSS VL: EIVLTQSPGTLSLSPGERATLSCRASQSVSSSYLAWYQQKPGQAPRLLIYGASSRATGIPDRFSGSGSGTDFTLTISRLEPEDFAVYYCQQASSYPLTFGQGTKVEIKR", "numeric_value": "1.23e+06"}
{"binder": "FS22-053-008-AA/FS28-024-052 mAb^2 (bispecific antibody, human IgG1, kappa, L234A L235A, V domains shown, also called FS28-024-52) VH: EVQLLESGGGLVQPGGSLRLSCAASGFTLSYSSMSWVRQAPGKGLEWVSFITPSTGYTHYADSVKGRFTISRDNSKNTLYLQMNSLRAEDTAVYYCARRALLFDYWGQGTLVTVSS VL: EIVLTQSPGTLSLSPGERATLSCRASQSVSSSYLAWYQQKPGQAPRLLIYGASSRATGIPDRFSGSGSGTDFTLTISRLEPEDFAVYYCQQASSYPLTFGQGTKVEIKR", "numeric_value": 986000}
